Assay: reducers of endogenous Her2 protein level, primary screen, SKBR3 breast tumor cells, AlphaScreen, ATP viability (AID 461);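 further: percent of carrier control wells set as 100% viability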
Details: 18-24 h, measured here: SKBR3 viability, ATP luminescence, at 10 µM
OBSERVABLE: viability (%)
Response body: numeric value in %, unit text excluded.

Below are worked cases with known answers.
                                   compound  observable  observed
0  CC(C)C1Cc2c(C#N)c(N)sc(=S)c2CO1 (stereo unspecified)   viability        85
1  CCOC(=O)N1CCC2(O)CCCCC2C1c1ccc(F)cc1 (stereo unspecified)   viability       102
2    OCCn1c(-c2ccc3c(c2)OCO3)csc1=Nc1ccccc1   viability        97
3  Cc1ccc(NC(=O)CSc2nnc(CNC(=O)c3c(F)cccc3Cl)o2)cc1   viability        80
4  CC1Cc2ccccc2N1C(=O)CSc1nnc2n1C(C)(C)Cc1ccccc1-2 (stereo unspecified)   viability        79
5              COc1ccccc1-n1nnnc1SCc1ccccc1   viability       103
6  COc1ccc(C2C(C#N)=C(N)OC3=C2C(=O)CC(C)C3)c(OC)c1OC (stereo unspecified)   viability       102
7  Cc1ccc(S(=O)(=O)N2CCC(C(=O)N3CCC[C@H]3C(=O)NCc3ccccc3)CC2)cc1   viability       117

Ask: // Input: O=S(=O)(NCC1CCCO1)c1cc(Cl)ccc1Br (stereo unspecified) . Output its viability only.
Reply: 87.5

Ask: // Input: CC(C)(C)n1ncc2c(=O)n(CC(=O)c3ccccc3)cnc21 . Output its viability only.
Reply: 95

Ask: // Input: CCOc1ccccc1NC(=O)N1CCCC1C(=O)Nc1nnc(CC)s1 (stereo unspecified) . Output its viability only.
Reply: 94

====

Assay: reversal of MRP1-mediated doxorubicin resistance, pilot screen, H69AR cells, doxorubicin co-treatment (AID 601)
Conditions: H69AR cells, CellTiter-Glo, 72 h; compound alone cytotoxicity; at 10 µM
Please note: viability exactly at 90% is f. Only values below 90% get t.

Example entries and their recorded answers appear below.
                                   molecule  class_name
0    O=C1CN=C(Nc2cccc(C(F)(F)F)c2)N1C1CCCC1           t
1  CCn1nc(C(=O)OCC(=O)N2CCc3ccccc32)c2ccccc2c1=O           f

Ask: # TODO verify viability < 90% strictly for this molecule: CCOc1ncccc1C(=O)OCC(=O)Nc1ncc(C(F)(F)F)cc1Cl
Reply: f

Ask: # TODO verify viability < 90% strictly for this molecule: CCN(CC)CCOc1cccc(C(C)C)c1
Reply: f

Ask: # TODO verify viability < 90% strictly for this molecule: COc1ccc(S(=O)(=O)N2CCSC2c2ccccc2)cc1 (stereo unspecified)
Reply: t

====

Assay: reversal of MRP1-mediated doxorubicin resistance, pilot screen, H69AR cells, doxorubicin co-treatment (AID 601)
Settings: H69AR cells + 2 uM doxorubicin, CellTiter-Glo, 72 h; measured here: viability with 2 uM doxorubicin; at 10 µM; stronger effect = lower value
Please note: viability exactly at 90% is Condition not met. Only values below 90% get Condition met.

In [3]: df
Out[3]:
                                   molecule         class_name
0  Cc1ccc(-c2ccc(=O)n(CCC(=O)NCc3ccccn3)n2)cc1      Condition met
1  CCOc1ccccc1N(C(=O)Cn1nnnc1-c1ccc(C)o1)C(CC)C(=O)NC(C)(C)C (configuration not stated)  Condition not met
2  COC(=O)Nc1ccc(S(=O)(=O)N2CCN(c3ccc(F)cc3)CC2)cc1  Condition not met
3  COc1ccccc1Cn1nnc2c(=O)[nH]c(C3CCN(C(=O)c4ccccc4Cl)CC3)nc21      Condition met
4       CC(=O)c1c(C)nc(C)nc1NC(=O)Cc1ccccc1  Condition not met
5  O=C(CSc1nnc(-c2c[nH]c3ccccc23)o1)N(Cc1ccccc1)c1ccc(F)cc1  Condition not met

Ask: # TODO verify viability < 90% strictly for this molecule: CC(=O)c1coc2ccc(OCC(=O)O)cc12
Reply: Condition not met

Ask: # TODO verify viability < 90% strictly for this molecule: COc1cc(NC(=O)NC(C)(C(F)(F)F)C(F)(F)F)cc(OC)c1OC
Reply: Condition not met

Ask: # TODO verify viability < 90% strictly for this molecule: CCCCOCCCNC(=O)c1ccccc1OCC
Reply: Condition met
